# key: entry, value: inhibition at 1 µM
- assayed-target: recombinant BRD4 (BD1 + BD2) (Homo sapiens, UniProt O60885)
- Construct: employing a recombinant BRD4 (BD1 + BD2) and its corresponding ligand
- assay-overview: BRD4 TR-FRET activity assay;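 note: signal rises with BET ligand binding to the bromodomains, so inhibitors lower it, 120 min incubation at room temperature, 1% DMSO, wells lacking ligand as negative control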
- Type: binding
- conditions-used: 1 μmol/L; read-out: BRD4 inhibition rate
Lab book: enter the figure in %, no units written.

Cc1ccc(C(=O)Nc2cc(Cc3n[nH]c(=O)c4ccccc34)cc(-c3c(C)noc3C)c2)cc1; 76

Q: So what does the record say about inhibition at 1 µM for Cc1noc(C)c1-c1cc(Cc2n[nH]c(=O)c3ccccc23)cc(C(=O)N2CC[C@@H](O)C2)c1 ?
A: 71

Q: Then CCS(=O)(=O)Nc1cc(Cc2n[nH]c(=O)c3ccccc23)cc(-c2c(C)noc2C)c1 ?
A: 69

Q: Try Cc1noc(C)c1-c1cc(Cc2n[nH]c(=O)c3ccccc23)cc(NS(=O)(=O)c2cccc(S(C)(=O)=O)c2)c1 next.
A: 5

Q: What about this compound? Cc1noc(C)c1-c1cc(Cc2n[nH]c(=O)c3ccccc23)cc(NS(=O)(=O)c2ccc(Br)cc2)c1
A: 26

Q: // query: Cc1noc(C)c1-c1cc(Cc2n[nH]c(=O)c3ccccc23)cc(NCc2ccc(F)c(Br)c2)c1
A: 4

Q: Again, but for Cc1noc(C)c1-c1cc(Cc2n[nH]c(=O)c3ccccc23)cc(NCc2ccc(F)cc2)c1
A: 3
